# study target: T1, SIRPα V1-his (ACRO, Cat #SIA-H5225) (human, UniProt P78324 31-370)
# T1 construct: not shown: His tag
# T1 sequence (P78324 31-370 limits assumed): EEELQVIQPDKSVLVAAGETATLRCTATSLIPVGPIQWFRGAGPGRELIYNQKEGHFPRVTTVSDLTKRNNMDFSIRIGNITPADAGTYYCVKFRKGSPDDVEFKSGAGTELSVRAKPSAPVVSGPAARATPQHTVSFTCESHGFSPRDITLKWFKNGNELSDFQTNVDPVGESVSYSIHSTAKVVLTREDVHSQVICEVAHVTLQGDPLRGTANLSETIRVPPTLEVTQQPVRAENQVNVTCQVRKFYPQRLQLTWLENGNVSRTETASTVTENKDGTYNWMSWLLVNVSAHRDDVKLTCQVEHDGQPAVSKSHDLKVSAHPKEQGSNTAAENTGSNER
# assay: SPR (Biacore), antibody captured by anti-Fc on CM5, 50 nM SIRPα V1-his injected, 1:1 model
property measured: kon (M⁻¹ s⁻¹)

1. Z3 (antibody, IgG1, V domains shown, also called humanized variant Z3) VH: QVQLQESGPGLVKPSQTLSLTCTVSGFSLTGYGVNWIRQPPGKGLEWIGIIWGDGSTDYNSALKSRVTISVDTSKNQVFLKLSSVTAADTAVYYCARAGKMDYWGQGTTVTVSS VL: DIVLTQSPASLAVSPGQRATITCRASESVDSYGNSFMHWYQQKPGQPPKPLIYLASNLESGVPARFSGSGSRTDFTLTINPVEANDAANYYCQQNNEYPWTFGGGTKVEIK | 699000
2. Z5 (antibody, IgG1, V domains shown, also called humanized variant Z5) VH: QVQLQESGPGLVKPSQTLSLTCTVSGFSLTGYGVNWIRQPPGKGLEWIGIIWGDGSTDYNSALKSRVTISKDTSKNQVFLKLSSVTAADTAVYYCARAGKMDYWGQGTTVTVSS VL: DIVLTQSPASLAVSPGQRATITCRASESVDSYGNSFMHWYQQKPGQPPKLLIYLASNLESGVPARFSGSGSRTDFTLTINPVEANDAANYYCQQNNEYPWTFGGGTKVEIK | 747000
3. Z4 (antibody, IgG1, V domains shown, also called humanized variant Z4) VH: QVQLQESGPGLVKPSQTLSLTCTVSGFSLTGYGVNWIRQPPGKGLEWIGIIWGDGSTDYNSALKSRVTISKDTSKNQVFLKLSSVTAADTAVYYCARAGKMDYWGQGTTVTVSS VL: DIVLTQSPASLAVSPGQRATITCRASESVDSYGNSFMHWYQQKPGQPPKPLIYLASNLESGVPARFSGSGSGTDFTLTINPVEANDAANYYCQQNNEYPWTFGGGTKVEIK | 775000
4. Z6 (antibody, IgG1, V domains shown, also called humanized variant Z6) VH: QVQLQESGPGLVKPSQTLSLTCTVSGFSLTGYGVNWIRQPPGKGLEWIGIIWGDGSTDYNSALKSRVTISKDTSKNQVFLKLSSVTAADTAVYYCARAGKMDYWGQGTTVTVSS VL: DIVLTQSPASLAVSPGQRATITCRASESVDSYGNSFMHWYQQKPGQPPKPLIYLASNLESGVPARFSGSGSRTDFTLTINPVEANDAANYYCQQNNEYPWTFGGGTKVEIK | 708000
5. AD4-12 (antibody, V domains shown, Mouse variable domains joined to human kappa and human IgG1 constant regions (wild type = AD4-12-G1, L234A/L235A = AD4-12-G1lala); also called AD4-12-G1; AD4-12-G1lala) VH: EVQLEESGPGLVAPSQSLSITCTVSGFSLTGYGVNWVRQPPGKGLEWLGIIWGDGSTDYNSALKSRLSISKDNSKSQVFLKMNSLQSDDTARYYCARAGKMDYWGQGTSVTVSS VL: DIVLTQSPASLAVSLGQGATISCRASESVDSYGNSFMHWYQQKPGQPPKPLIYLASNLESGVPARFSGSGSRTDFTLTIDPVEADDAATYYCQQNNEYPWTFGGGTKLEIK | 770000
